Reference for the values: PubChem BioAssay (EPA / NIEHS)

# Read-out: glucuronosyltransferase (UGT1A1), UGT1A1 (gene 54658)
# run-description: CLD_UGT1A1_48hr: CellzDirect (CLD) Gene Expression Assay for glucuronosyltransferase (UGT1A1) at 48 hours (AID 2283709);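 further: actives increase expression relative to DMSO so potency refers to induction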
Records with an inconclusive call do not appear. Calls of active or inactive are those of the source. How the source made its calls: active means hit-call score of the fitted dose curve at least 0.9, where 1 is the maximum; inconclusive means response in the unintended direction; inactive means score below 0.9.
value-kind: AC50

Illustrative cases are given below, each with its answer.
compound=CCCCOC(=O)[C@@H](C)Oc1ccc(Oc2ccc(C#N)cc2F)cc1 value_kind=AC50 experimental_result=inactive
compound="CCOC(=O)CC(SP(=O)(OC)OC)C(=O)OCC (configuration not stated)" value_kind=AC50 experimental_result=inactive
compound=CCCOc1nn(C(=O)NS(=O)(=O)c2ccccc2C(=O)OC)c(=O)n1C value_kind=AC50 experimental_result=inactive
compound=CCc1cccc(CC)c1N(COC)C(=O)CCl value_kind=AC50 experimental_result=inactive
compound=C[N+]1(C)CCCCC1 value_kind=AC50 experimental_result=inactive
compound=CCOP(=S)(OCC)SCCSCC value_kind=AC50 experimental_result="4.17 µM (active)"
compound=Nc1c(Cl)cc([N+](=O)[O-])cc1Cl value_kind=AC50 experimental_result=inactive
compound="CC(C1CC1)C(O)(Cn1cncn1)c1ccc(Cl)cc1 (configuration not stated)" value_kind=AC50 experimental_result=inactive

I need AC50 for every entry listed below, if you could help.
1. CCc1cccc(C)c1N(C(=O)CCl)C(C)COC (configuration not stated)
2. COc1cccc(C(=O)NN(C(=O)c2cc(C)cc(C)c2)C(C)(C)C)c1C

Result ::
1. inactive
2. 8.82 µM (active)

I need AC50 for every entry listed below, if you could help.
1. CC(=NC#N)N(C)Cc1ccc(Cl)nc1
2. Cc1nn(-c2cc(NS(C)(=O)=O)c(Cl)cc2Cl)c(=O)n1C(F)F

Result ::
inactive
inactive

---

# Read-out: Monocyte Chemoattractant Protein-1 (MCP1), CCL2 (gene 6347)
# run-description: BSK_CASM3C_MCP1: BioMAP Diversity Plus: CASM3C Assay for Monocyte Chemoattractant Protein-1 (MCP1) Biomarker Activity (AID 2283046);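 further: MCP-1 level quantified by ELISA 24 h after dosing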
# study-conditions: primary human coronary artery smooth muscle cells; actives raise or lower the signal
Active and inactive are the calls of the source. How the source made its calls: active means hit-call score of the fitted dose curve at least 0.9, where 1 is the maximum; inactive means score below 0.9.
Return exactly one item of active, inactive

compound=CNC(=O)Oc1cccc2c1OC(C)(C)O2 classification=inactive
compound="CC(C1CC1)C(O)(Cn1cncn1)c1ccc(Cl)cc1 (configuration not stated)" classification=inactive
compound=CCCOCC(=Nc1ccc(Cl)cc1C(F)(F)F)n1ccnc1 classification=active
compound=COP(=O)(OC)SCn1c(=O)oc2cc(Cl)cnc21 classification=active
compound="COP(=O)(OC)OC(Br)C(Cl)(Cl)Br (configuration not stated)" classification=active

Query :: Called result for "CNC(=O)ON=C(SC)C(=O)N(C)C"
Result :: inactive

---

# run-description: APR_HepG2_MitoMembPot_24hr: Apredica 24-hour HepG2 Assay for Mitochondrial Membrane Potential (AID 2282911)
# study-conditions: imaging, actives raise or lower the signal
Active and inactive are the calls of the source. How the source made its calls: active means hit-call score of the fitted dose curve at least 0.9, where 1 is the maximum; inactive means score below 0.9.
Return exactly one item of active, inactive

Completed entries (count: 6):
molecule="CCOP(=O)(NC(C)C)Oc1ccc(SC)c(C)c1 (stereo not given)" classification=inactive
molecule="CC(COc1ccc(Oc2ccccc2)cc1)Oc1ccccn1 (stereo not given)" classification=active
molecule="CCOP(=S)(OCC)OC(Cl)C(Cl)(Cl)Cl (stereo not given)" classification=active
molecule="CCOP(=S)(Oc1cnc(C(C)(C)C)nc1)OC(C)C (stereo not given)" classification=inactive
molecule=O=[N+]([O-])c1cc(C(F)(F)F)c(Cl)c([N+](=O)[O-])c1Nc1ncc(C(F)(F)F)cc1Cl classification=inactive
molecule="COP(=O)(NC(C)=O)SC (stereo not given)" classification=inactive

Attention now shifts to the item below.
Query :: Called result for "S=C1NCCN1"
Result :: inactive

---

# run-description: ATG_RORE_CIS: Attagene CIS-FACTORIAL HepG2 Assay for human RAR-related Orphan Receptor Element (RORE) (AID 2282959)
# study-conditions: HepG2 Attagene cis-factorial RORE reporter, mRNA; actives raise or lower the signal
The source made the active and inactive calls. The calls were made as follows: active = hit-call score of the fitted dose curve at least 0.9, where 1 is the maximum; inactive = score below 0.9.
Return exactly one item of True (active), False (inactive)

Completed entries (count: 3):
molecule=COc1cc(OC)nc(Sc2cccc(Cl)c2C(=O)O)n1 classification=False
molecule=CC(C)N(C(=O)SCC(Cl)=C(Cl)Cl)C(C)C classification=False
molecule=C[Si](Cn1cncn1)(c1ccc(F)cc1)c1ccc(F)cc1 classification=True

Query :: Called result for "CC(C)[C@H](C(=O)O[C@H](C#N)c1cccc(Oc2ccccc2)c1)c1ccc(Cl)cc1"
Result :: False

---

# run-description: ATG_M_32_CIS: Attagene CIS-FACTORIAL HepG2 Assay for M32 Transcription Factor (Internal Marker) (AID 2282949);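 further: background control marker of the multiplexed CIS panel rather than a real target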
# study-conditions: HepG2 Attagene cis-factorial M32 reporter, mRNA; actives raise or lower the signal
The source made the active and inactive calls. Rule for the calls: active = hit-call score of the fitted dose curve at least 0.9, where 1 is the maximum; inactive = score below 0.9.
Return exactly one item of active, inactive

Completed entries (count: 5):
compound=CCCCSP(=O)(SCCCC)SCCCC classification=active
compound="CC(Oc1cccc(Cl)c1)C(=O)O (centres undefined)" classification=inactive
compound=C=C(C)[C@H]1Cc2c(ccc3c2O[C@@H]2COc4cc(OC)c(OC)cc4[C@@H]2C3=O)O1 classification=inactive
compound=Cc1ccn2nc(S(=O)(=O)Nc3c(F)cccc3F)nc2n1 classification=inactive
compound=CN(C)C(=O)Nc1cccc(C(F)(F)F)c1 classification=inactive

Query :: Called result for CCCSP(=O)(OCC)Oc1ccc(Br)cc1Cl (centres undefined)
Result :: inactive

Query :: Called result for "CCOP(=S)(OCC)Oc1ccc2c(C)c(Cl)c(=O)oc2c1"
Result :: inactive

Query :: Called result for "C[N+]1(C)CCCCC1"
Result :: inactive

Query :: Called result for COP(=O)(OC)C(O)C(Cl)(Cl)Cl (centres undefined)
Result :: inactive

---

# system: Bile acid receptor (Homo sapiens)
# run-description: OT_FXR_FXRSRC1_0480: Odyssey Thera (OT) 8-hour HEK293T Protein-Complementation Assay for Farnesoid X receptor/SRC-1 Co-activator (AID 2283383)
Records with an inconclusive call do not appear. The source made the active and inactive calls. Rule for the calls: active = hit-call score of the fitted dose curve at least 0.9, where 1 is the maximum; inconclusive = response in the unintended direction; inactive = score below 0.9.
Return exactly one item of label 1 (active), label 0 (inactive)

compound=COc1ccc(C(=CC(=O)N2CCOCC2)c2ccc(Cl)cc2)cc1OC classification="label 1"
compound=CCCSP(=O)(OCC)SCCC classification="label 0"
compound=CC1(C(=O)Nc2ccc(O)c(Cl)c2Cl)CCCCC1 classification="label 0"
compound="C#CCC1=C(C)C(OC(=O)C2C(C=C(C)C)C2(C)C)CC1=O (configuration not stated)" classification="label 1"
compound=COc1cccc(C(=O)NN(C(=O)c2cc(C)cc(C)c2)C(C)(C)C)c1C classification="label 1"
compound=C=C(C)[C@H]1Cc2c(ccc3c2O[C@@H]2COc4cc(OC)c(OC)cc4[C@@H]2C3=O)O1 classification="label 1"

Query :: Called result for "CC(C)N(C(=O)SCC(Cl)=C(Cl)Cl)C(C)C"
Result :: label 1

---

# Read-out: CYP2C9 (gene 1559)
# run-description: LTEA_HepaRG_CYP2C9: Life Technologies and Expression Analysis (LTEA) Assay for CYP2C9 using HepaRG (AID 2283484)
# study-conditions: mRNA level, 48 h; actives raise or lower the signal
Active and inactive are the calls of the source. How the source made its calls: active means hit-call score of the fitted dose curve at least 0.9, where 1 is the maximum; inactive means score below 0.9.
Return exactly one item of label 1 = active, label 0 = inactive

Completed entries (count: 5):
molecule="CC(C)=CC1C(C(=O)OCN2C(=O)C3=C(CCCC3)C2=O)C1(C)C (stereo not drawn)" classification="label 0"
molecule=C[N+]1(C)CCCCC1 classification="label 0"
molecule=CSc1nnc(C(C)(C)C)c(=O)n1N classification="label 0"
molecule=CC[C@H](C)[C@H]1O[C@]2(C=C[C@@H]1C)C[C@@H]1C[C@@H](C/C=C(\C)[C@@H](O[C@H]3C[C@H](OC)[C@@H](O[C@H]4C[C@H](OC)[C@@H](NC)[C@H](C)O4)[C@H](C)O3)[C@@H](C)/C=C/C=C3\CO[C@@H]4[C@H](O)C(C)=C[C@@H](C(=O)O1)[C@]34O)O2 classification="label 0"
molecule=COc1ccc(C(=CC(=O)N2CCOCC2)c2ccc(Cl)cc2)cc1OC classification="label 0"

Query :: Called result for "CCOP(=S)(OCC)Oc1cc(C)nc(C(C)C)n1"
Result :: label 0

Query :: Called result for "CCCOCC(=Nc1ccc(Cl)cc1C(F)(F)F)n1ccnc1"
Result :: label 1

Query :: Called result for "COc1cccc(C(=O)NN(C(=O)c2cc(C)cc(C)c2)C(C)(C)C)c1C"
Result :: label 0

---

# run-description: STM_H9_OrnCyssISnorm_ratio: Stemina devTOX quickPredict H9 human embryonic stem cell (hESC)-based Assay for Ornithine (ORN):Cystine (CYSS) Ratio (AID 2283714)
Inconclusive results are not listed. Active and inactive are the calls of the source. Rule for the calls: active = hit-call score of the fitted dose curve at least 0.9, where 1 is the maximum; inconclusive = response in the unintended direction; inactive = score below 0.9.
Return exactly one item of active, inactive

Completed entries (count: 6):
compound=N#CSCSC#N classification=active
compound=CSc1nc(NC(C)C)nc(NC(C)C)n1 classification=active
compound=CCOP(=S)(OCC)Oc1cc(C)nc(C(C)C)n1 classification=active
compound=C[Si](Cn1cncn1)(c1ccc(F)cc1)c1ccc(F)cc1 classification=active
compound="CC(C1CC1)C(O)(Cn1cncn1)c1ccc(Cl)cc1 (centres undefined)" classification=active
compound=C=C(C)[C@H]1Cc2c(ccc3c2O[C@@H]2COc4cc(OC)c(OC)cc4[C@@H]2C3=O)O1 classification=active

Query :: Called result for "CCOP(=S)(OCC)Oc1ccc2c(C)c(Cl)c(=O)oc2c1"
Result :: inactive

Query :: Called result for "CC(C)N(C(=O)SCC(Cl)=C(Cl)Cl)C(C)C"
Result :: active

Query :: Called result for "CC(C)[C@H](C(=O)O[C@H](C#N)c1cccc(Oc2ccccc2)c1)c1ccc(Cl)cc1"
Result :: active

Query :: Called result for "CN(C)[C@@H]1C(=O)C(C(N)=O)=C(O)[C@@]2(O)C(=O)C3=C(O)c4c(O)cccc4[C@@](C)(O)[C@H]3[C@H](O)[C@@H]12"
Result :: inactive

Query :: Called result for "CCOP(=S)(OCC)SCCSCC"
Result :: active

Query :: Called result for "CNc1cnn(-c2cccc(C(F)(F)F)c2)c(=O)c1Cl"
Result :: inactive

Query :: Called result for "CCCCOC(=O)[C@@H](C)Oc1ccc(Oc2ccc(C#N)cc2F)cc1"
Result :: active

Query :: Called result for "COc1ccc(C(=CC(=O)N2CCOCC2)c2ccc(Cl)cc2)cc1OC"
Result :: inactive
